target: MAGI1_6, Q96QZ7; assay: holdup assay; set-up: key: below the threshold = too weak to quantify, mostly under pKd 3.1 to 4; conditions: plain residues with an end cap or a label only (N-terminal biotin on a linker: ttds)
Sequence (Q96QZ7 1146-1238): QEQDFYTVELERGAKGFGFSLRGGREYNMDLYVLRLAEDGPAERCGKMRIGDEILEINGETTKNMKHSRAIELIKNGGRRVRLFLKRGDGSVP
Parameter Measured: pKd
// return just the number, without any unit appended

Example entries begin here.
RLPKIKETTV [FRMPD4, Q14CM0] :: 4.57
SSLQSLETSV [ATP2B4, P23634] :: 4.49
RHTTSTETAV [HPV30-E6, P36809] :: 4.73

Next up:
Q: Suppose we examine the binder SKPTRRETEV [HPV35-E6, P27228] ; what pKd value has been reported?
Ans: 3.66
